# Target or system: FXa (Homo sapiens, UniProt P00742)
# Sequence (P00742 235-488 limits assumed): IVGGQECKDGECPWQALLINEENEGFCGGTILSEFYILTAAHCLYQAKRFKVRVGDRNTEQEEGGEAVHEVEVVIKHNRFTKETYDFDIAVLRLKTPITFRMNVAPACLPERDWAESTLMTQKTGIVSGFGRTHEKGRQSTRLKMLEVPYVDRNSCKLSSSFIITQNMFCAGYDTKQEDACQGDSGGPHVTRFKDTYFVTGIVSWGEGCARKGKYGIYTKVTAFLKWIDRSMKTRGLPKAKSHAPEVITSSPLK
# Sequence (P00742 41-179 partner limits assumed): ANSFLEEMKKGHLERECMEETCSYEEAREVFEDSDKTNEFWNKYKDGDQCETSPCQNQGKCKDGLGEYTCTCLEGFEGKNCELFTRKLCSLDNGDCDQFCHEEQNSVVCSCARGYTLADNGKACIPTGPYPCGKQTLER
# Experiment: Determination of selectivity: FXa inhibition, chromogenic substrate S2765 assay
# Format: biochemical
# Condition description: fold selectivity for FXIIa over FXa

Compound	Target or system	FXa (human)/FXIIa alpha (human)
Cn1nnc2cc(CNC(=O)[C@@H]3C[C@@H](Cc4cc(F)cc(F)c4)CN3C(=O)[C@H](N)CCC(=O)N3CCCC3)ccc21 [Example M05274]	FXa (Homo sapiens, UniProt P00742)	∘∘∘
COc1ccc(C[C@@H]2C[C@@H](C(=O)NCc3ccc4c(c3)nnn4C)N(C(=O)[C@H](N)CC(O)c3ccccc3)C2)cc1 (stereo partly drawn) [Example M05379]	FXa (Homo sapiens, UniProt P00742)	∘∘∘
Cn1nnc2cc(CNC(=O)[C@@H]3C[C@@H](Cc4ccc(S(C)(=O)=O)cc4)CN3C(=O)[C@H]3C[C@@H](c4ccccc4)CN3)ccc21 [Example M05372]	FXa (Homo sapiens, UniProt P00742)	∘∘∘
Cn1nnc2cc(CNC(=O)[C@@H]3C[C@H](NC(=O)CCc4ccccc4)CN3C(=O)[C@H](N)CCc3ccccc3)ccc21 [Example M05195]	FXa (Homo sapiens, UniProt P00742)	∘∘
NCc1ccc(CNC(=O)[C@@H]2C[C@H](C3CCCCC3)CN2C(=O)[C@H](N)CCc2ccccc2)cc1 [Example M05076]	FXa (Homo sapiens, UniProt P00742)	∘∘
COc1ccc(C[C@@H]2C[C@@H](C(=O)NCc3ccc4c(c3)nnn4C)N(C(=O)[C@H]3C[C@@H](c4cnn(C)c4)CN3C)C2)cc1 [Example M05474]	FXa (Homo sapiens, UniProt P00742)	∘∘∘
Cn1nnc2cc(CNC(=O)[C@]3(C)CCCN3C(=O)[C@H](N)CCC(=O)N3CCCC3)ccc21 [Example M05318]	FXa (Homo sapiens, UniProt P00742)	∘∘
COc1ccc(C[C@@H]2C[C@@H](C(=O)NCc3cc4cnccc4[nH]3)N(C(=O)[C@H]3C[C@@H](N4CCCCC4)CN3)C2)cc1 [Example M00964]	FXa (Homo sapiens, UniProt P00742)	∘∘∘
Cn1nnc2cc(CNC(=O)[C@@H]3C[C@H](C(F)(F)F)CN3C(=O)[C@H](N)CCC(=O)N3CCCC3)ccc21 [Example M05139]	FXa (Homo sapiens, UniProt P00742)	∘∘∘
COc1ccc(C[C@@H]2C[C@@H](C(=O)NCc3ccc4c(c3)nnn4C)N(C(=O)[C@H](N)CCC(=O)N3C(C)CCC3C)C2)cc1 (stereo partly drawn) [Example M05399]	FXa (Homo sapiens, UniProt P00742)	∘∘∘
Cn1nnc2cc(CNC(=O)[C@@H]3C[C@@H](Cc4ccc(S(C)(=O)=O)cc4)CN3C(=O)[C@H](N)CCC(=O)N3CCCC3)ccc21 [Example M05384]	FXa (Homo sapiens, UniProt P00742)	∘∘∘
Cn1nnc2cc(CNC(=O)[C@@H]3C[C@@H](Cc4ccc(C(F)(F)F)cc4)CN3C(=O)[C@H]3C[C@@H](c4ccccc4)CN3)ccc21 [Example M05334]	FXa (Homo sapiens, UniProt P00742)	∘∘
COc1ccc(C[C@@H]2C[C@@H](C(=O)NCc3ccc4c(c3)nnn4C)N(C(=O)[C@H]3C[C@@H](c4ccccc4OC(F)(F)F)CN3)C2)cc1 [Example M05388]	FXa (Homo sapiens, UniProt P00742)	∘∘∘
Cn1nnc2cc(CNC(=O)[C@@H]3C[C@@H](Cc4cccc(Cl)c4)CN3C(=O)[C@H]3C[C@@H](c4ccccc4)CN3)ccc21 [Example M05335]	FXa (Homo sapiens, UniProt P00742)	∘∘
COc1ccc(C[C@@H]2C[C@@H](C(=O)NCc3ccc4c(c3)nnn4C)N(C(=O)[C@H]3C[C@@H](c4cnn(C)c4)CN3)C2)cc1 [Example M05381]	FXa (Homo sapiens, UniProt P00742)	∘∘∘
Cn1nnc2cc(CNC(=O)[C@@H]3C[C@@H](Cc4cccc(-c5ccncc5)c4)CN3C(=O)[C@H](N)CCC(=O)N3CCCC3)ccc21 [Example M05323]	FXa (Homo sapiens, UniProt P00742)	∘∘∘
Cn1nnc2cc(CNC(=O)[C@@H]3C[C@H](C(F)(F)F)CN3C(=O)[C@H]3C[C@@H](c4ccccc4)CN3)ccc21 [Example M05280]	FXa (Homo sapiens, UniProt P00742)	∘∘
COc1ccc(C[C@@H]2C[C@@H](C(=O)NCc3ccc4c(c3)nnn4C)N(C(=O)[C@H](N)CCC(=O)N3CCC[C@@H]3C#N)C2)cc1 [Example M05458]	FXa (Homo sapiens, UniProt P00742)	∘∘∘
Cn1nnc2cc(CNC(=O)[C@@H]3C[C@H](Nc4cnccn4)CN3C(=O)[C@H](N)CCC(=O)N3CCCC3)ccc21 [Example M05243]	FXa (Homo sapiens, UniProt P00742)	∘∘
CN(C)[C@H](CCC(=O)N1CCCC1)C(=O)N1C[C@H](Cc2cccnc2)C[C@H]1C(=O)NCc1ccc2c(c1)c(Cl)nn2C [Example M05219]	FXa (Homo sapiens, UniProt P00742)	∘∘∘
COc1ccc(C[C@@H]2C[C@@H](C(=O)NCc3ccc4c(c3)nnn4C)N(C(=O)[C@H]3C[C@@H](c4ccncc4)CN3)C2)cc1 [Example M05353]	FXa (Homo sapiens, UniProt P00742)	∘∘
COc1ccc(C[C@@H]2C[C@@H](C(=O)NCc3cc4cnccc4[nH]3)N(C(=O)C3NCCc4cc(OC)ccc43)C2)cc1 (single isomer, unassigned) [Example M00961]	FXa (Homo sapiens, UniProt P00742)	∘∘∘
COc1ccc(C[C@@H]2C[C@@H](C(=O)NCc3ccc4c(c3)nnn4C)N(C(=O)[C@H]3CC(c4ccnn4C)CN3)C2)cc1 (stereo partly drawn) [Example M05376]	FXa (Homo sapiens, UniProt P00742)	∘∘
COc1ccc(C[C@@H]2C[C@@H](C(=O)NCc3ccc4c(c3)nnn4C)N(C(=O)[C@H]3C[C@@H](c4ncccn4)CN3)C2)cc1 [Example M05387]	FXa (Homo sapiens, UniProt P00742)	∘∘∘

* * *

# Target or system: FXa (Homo sapiens)
# Experiment: Determination of selectivity: FXa inhibition, chromogenic substrate S2765 assay
# Type: biochemical
# Condition description: fold selectivity for FXIIa over FXa

Compound	FXa (human)/FXIIa alpha (human)
Cn1nnc2cc(CNC(=O)[C@@H]3C[C@H](NC(=O)CCCc4ccccc4)CN3C(=O)[C@H](N)CCc3ccccc3)ccc21	∘∘
Cn1nnc2cc(CNC(=O)[C@@H]3C[C@@H](Cc4ccncc4)CN3C(=O)[C@H](N)CCC(=O)N3CCCC3)ccc21	∘∘∘
Cn1nnc2cc(CNC(=O)[C@@H]3C[C@H](c4ccccc4)CN3C(=O)[C@H](N)CCc3ccccc3)ccc21	∘∘
COc1ccc(C[C@@H]2C[C@@H](C(=O)NCc3ccc4c(c3)nnn4C)N(C(=O)[C@H](N)CCC(=O)N3CCCC3C(F)(F)F)C2)cc1 (stereo partly drawn)	∘∘∘
COc1ccc(C[C@@H]2C[C@@H](C(=O)NCc3ccc4c(c3)nnn4C)N(C(=O)[C@H](N)CCC(=O)N3CCC[C@@H]3C(C)C)C2)cc1	∘∘∘
Cn1nnc2cc(CNC(=O)[C@@H]3C[C@@H](Cc4ccccc4Cl)CN3C(=O)[C@H]3C[C@@H](c4ccccc4)CN3)ccc21	∘

* * *

# Target or system: FXa (Homo sapiens)
# Experiment: Determination of selectivity: FXa inhibition, chromogenic substrate S2765 assay
# Assay type: biochemical
# Condition description: fold selectivity for FXIIa over FXa
Readout: FXa (human)/FXIIa alpha (human)

Compound	Target or system	Result
NCc1ccc(CNC(=O)[C@@H]2CCCN2C(=O)[C@H](N)CCN2CCCCC2)cc1	FXa (Homo sapiens)	∘∘
COc1ccc(C[C@@H]2C[C@@H](C(=O)NCc3ccc4c(c3)nnn4C)N(C(=O)[C@H]3CC(c4cnccc4OC)CN3)C2)cc1 (stereo partly shown)	FXa (Homo sapiens)	∘∘
COc1ccc(C[C@@H]2C[C@@H](C(=O)NCc3ccc4c(c3)nnn4C)N(C(=O)[C@H]3CC(c4ccc[nH]c4=O)CN3)C2)cc1 (stereo partly shown)	FXa (Homo sapiens)	∘∘∘
COc1cc(CNC(=O)[C@@H]2C[C@H](c3ccccc3)CN2C(=O)[C@H](N)CCc2ccccc2)ccc1CN	FXa (Homo sapiens)	∘∘∘
COc1ccc(C[C@@H]2C[C@@H](C(=O)NCc3ccc4c(c3)nnn4C)N(C(=O)C3NCCc4cc(OC)ccc43)C2)cc1 (stereo partly shown) [Example M05442]	FXa (Homo sapiens)	∘∘∘
COc1ccc(C[C@@H]2C[C@@H](C(=O)NCc3ccc4c(c3)nnn4C)N(C(=O)[C@H]3CC(c4cncn4C)CN3)C2)cc1 (stereo partly shown)	FXa (Homo sapiens)	∘∘
COc1cc(CNC(=O)[C@@H]2C[C@H](O)CN2C(=O)[C@H](N)CCc2ccccc2)ccc1CN	FXa (Homo sapiens)	∘∘∘
Cn1nnc2cc(CNC(=O)[C@@H]3C[C@@H](Cc4ccccc4F)CN3C(=O)[C@H]3C[C@@H](c4ccccc4)CN3)ccc21	FXa (Homo sapiens)	∘∘
Cn1nnc2cc(CNC(=O)[C@@H]3CC(Cc4ccc(C#N)cc4)CN3C(=O)[C@H](N)CCC(=O)N3CCCC3)ccc21 (stereo partly shown)	FXa (Homo sapiens)	∘∘∘
COc1ccc(C[C@@H]2C[C@@H](C(=O)NCc3ccc4c(c3)nnn4C)N(C(=O)[C@H](N)CCc3ccccc3)C2)cc1	FXa (Homo sapiens)	∘∘∘
Cn1nnc2cc(CNC(=O)[C@@H]3C[C@@H](Cc4cccc(F)c4)CN3C(=O)[C@H]3C[C@@H](c4ccccc4)CN3)ccc21	FXa (Homo sapiens)	∘
Cn1nnc2cc(CNC(=O)[C@@H]3CC(Cc4ccc(F)c(Cl)c4F)CN3C(=O)[C@H](N)CCC(=O)N3CCCC3)ccc21 (stereo partly shown)	FXa (Homo sapiens)	∘∘∘
Cn1nnc2cc(CNC(=O)[C@@H]3C[C@@](O)(c4ccc(F)c(F)c4)CN3C(=O)[C@H](N)CCc3ccccc3)ccc21	FXa (Homo sapiens)	∘∘
